Test system: Leishmania donovani
TEST_DESCRIPTION: Antileishmanial activity against axenic Leishmania donovani amastigotes by Alamar Blue assay
Type: functional, organism-based
MEASUREMENT_CONDITIONS: in the assay text read “by tetrazolium dye-based assay” for “by Alamar Blue assay”
MEASUREMENT_LABEL: IC50

Entry "COc1ccc(C(=O)/C=C/c2cccc3ccccc23)cc1" — recorded IC50 = > 200 µM

###

System: THP-1
TEST_DESCRIPTION: Cytotoxicity against human THP1 cells at 1 uM after 48 hrs by Alamar Blue assay
Assay type: cell-based
MEASUREMENT_CONDITIONS: thp-1, 48 h
Recorded Activity by entry
Please respond with the number in % and leave the unit unwritten.

For "O=C(Nc1ccc(/C=C/C(=O)c2cccs2)cc1)c1ccccc1" on THP-1, measured Activity was 6

For "CC(=O)c1ccc(/C=C/C(=O)c2ccccc2)cc1" on THP-1, measured Activity was 45.7

For "O=C(/C=C/c1ccc(NC(=O)c2ccccc2)cc1)c1ccccc1" on THP-1, measured Activity was 37

For "O=C(Nc1ccc(/C=C/C(=O)c2ccco2)cc1)c1ccccc1" on THP-1, measured Activity was 0

For "O=C(/C=C/c1ccc(NC(=O)c2ccccc2)cc1)c1cccnc1" on THP-1, measured Activity was 0
